From: the Biogen ADME set (Fang et al. 2023)

Reported log10 of intrinsic clearance, rat liver microsomes values are given for each entry in this list.
result_type: log10 of intrinsic clearance, rat liver microsomes (log10 of the value in mL/min/kg)

1) Cc1nn(C(C)C)c(C)c1S(=O)(=O)NCC1CCN(C(=O)C2CC2)CC1 = 2.65
2) OCC1CCCCN1Cc1ccc(-c2ccccc2)cc1 (configuration not stated) = 3.35
3) CC(C)c1nsc(N2CCC(Nc3cccnc3)CC2)n1 = 2.61
4) Cc1cc(N(C)CC(C)(C)O)ncc1Br = 2.99
5) Cc1ncc2c(n1)CN(CCCc1nc3ccccc3o1)CC2 = 2.49
6) CCc1ccc(CNc2nncs2)o1 = 1.67
7) CCc1csc(NC(=O)c2ccc3c(c2)nc(C)n3C)n1 = 2.03

###

- stated_conditions: pH 6.8
Reported aqueous solubility values are given for each entry in this list.
result_type: aqueous solubility (mg/mL)

1. CC(=O)N1CCC(c2ccccn2)CC1 = 0.0483
2. CN(CC#N)C(=O)c1cccc(CN2CCCC2)c1 = 0.0349
3. O=C(Nc1ccccc1-n1ccnc1)c1cccs1 = 0.0772
4. Cc1nc2cc(-c3nccn3C)nn2c(NCc2cccnc2)c1C = 0.0557
5. Cc1ccc(S(=O)(=O)Cc2nc(-c3ccc(C(=O)NCc4cccnc4)cc3)oc2C)cc1 = 0.00033
6. N#Cc1ccnc(Nc2cc(C3CCN(C4COC4)CC3)cc(N3CCC(F)(F)C3)n2)c1 = 0.00071
7. O=C(Nc1nc2ccccc2[nH]1)c1cc(-c2ccccc2)nc2ccccc12 = 0.00045
8. Cc1csc(N(C(=O)c2cc3c(C)nn(C)c3s2)C2CC2)n1 = 0.0573
9. Cc1nnsc1CN(C)c1ccc2cc[nH]c2n1 = 0.0245
10. COCC(=O)N1CC[C@H](c2nnc(-c3ccc(C)cc3)o2)C1 = 0.0527
11. Cc1nccn1-c1ccc(F)cc1CNC(=O)C(C)C = 0.0593

###

result_type: log10 intrinsic clearance, rat liver microsomes (log10 of the value in mL/min/kg)

1) CCCOc1ccn2c(C(C)=O)cc(-c3ccccc3S(C)(=O)=O)c2c1 = 2.75
2) CC1(c2nnc(-c3cc(-c4ccccc4)n[nH]3)o2)CCOCC1 = 2.25
3) Cc1ccc(CN(C)Cc2c(C)noc2C)o1 = 3.10
4) O=C(Nc1ccccc1)Nc1ccccc1 = 1.96
5) CN(Cc1ccccn1)c1nc2ccccc2o1 = 2.56
6) Cc1ccc(C(=O)Nc2ccccc2C#N)cc1 = 2.24
7) Cc1nccc(-c2cccc(NCC(=O)Nc3ccc(F)cc3)c2)n1 = 2.48

###

Reported intrinsic clearance, human liver microsomes values are given for each entry in this list.
result_type: intrinsic clearance, human liver microsomes

1. Cc1ccc(C(=O)Nc2ncccc2C)s1 = 6.72 mL/min/kg
2. COCCN(C)c1ccc(CN2CCOC3(CCCC3)C2)cn1 = 38.5 mL/min/kg
3. Cc1csc(NC(=O)CCc2ccncc2)n1 = ≤ 4.74 mL/min/kg
4. N#Cc1cccc(NCc2ccc(-c3cccnc3)o2)c1 = 91.5 mL/min/kg
5. Cc1nsc(Nc2ccccc2)c1C#N = 300 mL/min/kg
6. CCCN(C)C(=O)Nc1cccc(-c2nnc3n2CCCCC3)c1 = ≤ 4.74 mL/min/kg
7. CNC(=O)c1cccc(Cn2nnc(-c3ccccc3Cl)n2)c1 = 16.5 mL/min/kg

###

Reported intrinsic clearance, rat liver microsomes values are given for each entry in this list.
result_type: intrinsic clearance, rat liver microsomes

1. CCc1nc2cc(-c3c(OC)cccc3OC)ccc2o1 = 3760 mL/min/kg
2. Cn1cc(C2CCN(CC(=O)N3CCc4sccc4C3)CC2)cn1 = 126 mL/min/kg
3. FC(F)(F)c1nccc(NCCSc2nc3ccccc3o2)n1 = 747 mL/min/kg
4. O=C(Nc1cccc(Cl)c1F)c1cccc(N2CCCC2=O)c1 = 894 mL/min/kg
5. Cc1ccc(-c2cnc(N)cn2)c2cccnc12 = 75.4 mL/min/kg
6. COC(=O)c1cccc2c1CCCN2C(=O)c1ccccc1 = 2050 mL/min/kg
7. CC1=C(C(=O)Nc2cc3cn[nH]c3cc2F)C(c2ccc(C(F)(F)F)cc2)CC(=O)N1 (centres undefined) = 120 mL/min/kg
8. CC(=O)Nc1ccc2nc(C)cc(O)c2c1 = ≤ 10.7 mL/min/kg
9. O=c1[nH]c2ccccc2n1C1CCN(Cc2nc(-c3cccs3)no2)CC1 = 234 mL/min/kg
10. CN1CCc2nc(C(=O)N[C@H]3C[C@@H](C(=O)N(C)C)CC[C@@H]3NC(=O)C(=O)Nc3ccc(Cl)cn3)sc2C1 = ≤ 10.7 mL/min/kg
11. Cc1ccc(F)c(N(C#N)Cc2nccn2C(F)F)c1 = 225 mL/min/kg
12. O=c1c(-c2ccc(F)cc2)c(-c2ccncc2)[nH]n1-c1ccc(Cl)cc1 = ≤ 10.7 mL/min/kg
13. O=C(c1ccc(NS(=O)(=O)c2cccc3cccnc23)cc1)N1CCN(CC2CC2)CC1 = 604 mL/min/kg
14. Cn1ncc2c(Oc3cccc(C(C)(C)C)c3)ncnc21 = 465 mL/min/kg
15. Cc1ccccc1NC(=O)Cn1nnc(C2CC2)n1 = 51.4 mL/min/kg
16. Cc1cc(NC(=O)C2CCN(c3ccncc3Cl)CC2)no1 = 186 mL/min/kg
17. Cc1ccc(C)c(OCCN(C)C(=O)c2ccc3c(c2)nnn3C)c1 = 1030 mL/min/kg
18. CNCc1cc(N(C)C)nc(C2CCCN2C(=O)c2ccccc2-c2ccccc2)n1 (centres undefined) = 228 mL/min/kg
19. Cc1cccc2cc(C(=O)NCCCn3nnc4ccccc43)n(C)c12 = 1410 mL/min/kg
20. NCc1ccc(Oc2ccccc2)nc1 = 50.5 mL/min/kg
21. O=S(=O)(Cc1csc(C2CCCC2)n1)C1CCCC1 = 2190 mL/min/kg
22. CC(C)CNc1nnc(SCc2ccncc2)s1 = 631 mL/min/kg
23. CCOc1ccc2c(c1)cc(CN1CCSCC1)c1nn(C)c(=O)n12 = 604 mL/min/kg
24. O=C(CCCc1nc2ccccc2[nH]1)N1CCCC1 = 85 mL/min/kg

###

Reported fraction unbound, rat plasma values are given for each entry in this list.
result_type: fraction unbound, rat plasma

1) NCCCC[C@H](N[C@@H](CCc1ccccc1)C(=O)O)C(=O)N1CCC[C@H]1C(=O)O = 1
2) Cc1cc(N2CCCC2c2cc(CCC(=O)O)cc(C)n2)ncn1 (stereo not given) = 1
3) O=C1CCCC[C@@H]2[C@H](C[C@@H](Cc3ccccc3F)N2C(=O)c2cccc3ncccc23)N1 = 0.223
4) O=C(Nc1cccnc1)c1ccnc(NC(=O)C2CC2)c1 = 0.412
5) O=C(Nc1cccc(-c2nncn2C2CC2)c1)c1cc(-n2cnc(C3CC3)c2)ccn1 = 0.0409

###

Label scheme for MDR1-MDCK efflux ratio: low bin: < 0.6; mid bin: ≥ 0.6 and < 1; high bin: ≥ 1

1) CC(C)c1cnc(COc2ccc(Br)nc2)o1 = low bin
2) CC(C)CCCNC(=O)c1[nH]ncc1Br = low bin
3) O=C(CSc1nnc(-c2cccs2)[nH]1)N1CCCCCC1 = high bin
4) Cc1ccc(=O)n(CC2(O)CCN(Cc3cccs3)CC2)n1 = high bin
5) CCN(C/C=C/c1ccc(F)cc1)Cc1nc(COC)no1 = low bin
6) Fc1ccccc1CN1CCN(c2ncccn2)CC1 = mid bin
7) O=c1c2cccc(C(F)(F)F)c2ncn1C1CCCC1 = low bin
8) O=C(NCc1cnn(-c2ccccc2)c1)C1CCC1 = mid bin
9) CCCCCNC(=N)N/N=C/c1c[nH]c2ccc(OC)cc12 = high bin
10) CSC1(CNc2cc(C)nc(C)n2)CCOCC1 = high bin
11) Fc1cccc(CN2CCN(c3ncccn3)CC2)c1 = low bin
12) CCc1cccc(C)c1NC(=O)c1ccc(C)o1 = mid bin

###

Reported intrinsic clearance, human liver microsomes values are given for each entry in this list.
result_type: intrinsic clearance, human liver microsomes (mL/min/kg)

1. CCN(CC(N)=O)CC(=O)N1c2ccccc2CCc2ccccc21 = 40.9
2. CC(=O)N1CCN([C@H]2CCN(C(=O)c3cc4cc(C)ccc4o3)CC[C@@H]2O)CC1 = 7.28
3. O=C(Nc1nccs1)c1c2c(nc3ccccc13)CCC2 = 13.2

###

Reported intrinsic clearance, rat liver microsomes values are given for each entry in this list.
result_type: intrinsic clearance, rat liver microsomes (L/h/kg)

1) Cc1cccc(-c2ncc(CNCc3ccccc3-n3cccn3)cn2)c1 = 207
2) COc1ccc(CNc2ncc(-c3ccc4c(c3)OCO4)n2C)c(OC)c1 = 95.7
3) Cc1cc(CNc2ncc(C(F)(F)F)cc2Cl)no1 = 7.71
4) CC1=CCN(C(=O)c2cc(C)nc3cc(C)cc(C)c23)CC1 = 128
5) CN(Cc1cnc2ccccc2n1)S(=O)(=O)N1CCCC1 = 95.9
6) CNCc1cc(N(C)C)nc(C2CCCN2C(=O)COc2ccc(F)cc2)n1 (stereo not drawn) = 14.7
7) Cn1cc(CN2CCCC(c3ccnc(Nc4cnccn4)c3)C2)cn1 (stereo not drawn) = 10.8
8) O=C(Cc1cccnc1)Nc1ncccc1Cl = 1.87
9) Cc1nn(C)c(C)c1-c1cc(C(C)(C)C)nc(N2CCN(C)CC2)n1 = 277
10) CCOC(=O)CNC(=O)c1ccc(O)cc1O = 6.82
11) c1ccc(-c2ccc(Cn3ccnc3-c3cc4n(n3)CCCNC4)cc2)cc1 = 23.9
12) COc1nn(C)cc1C(=O)Nc1cccc2cnccc12 = 10.8
13) Cc1cc(Nc2ncccn2)cc(C2CCCN(CC(=O)Nc3ccc(F)cc3)C2)n1 (stereo not drawn) = 27.3
14) Cc1ncc(CN2CCC(Nc3ccc4nnnn4n3)C(C)C2)s1 (stereo not drawn) = 7.35
15) O=C(NCC1(c2ccccc2)CC1)c1cccnc1 = 13.9
16) Fc1cc(-c2ccncc2)ccc1CNc1ncccn1 = 14.3
17) O=C(Nc1ccc2c3c(cccc13)CC2)c1ccnc(-n2cncn2)c1 = 9.85
18) O=C(c1cc(-c2cccc(Cl)c2)on1)N1CCC(n2cccc2)CC1 = 16.4
19) COCC(=O)N(CC1CCCO1)c1nc2c(s1)CCc1c-2cnn1C (stereo not drawn) = 0.852
20) O=C(c1cccc(Nc2ncccn2)c1)N1CCOCC(Cc2cccc3ccncc23)C1 (stereo not drawn) = 99
21) CC(=O)Nc1cccc(OCC(=O)N2CCCCC2)c1 = 7.53
22) Cc1nn(C)c(C)c1-c1cc(C(C)(C)C)nc(N(C)C)n1 = 21.9
23) O=C(CCCCCCC(=O)Nc1ccccc1)NO = 1.64
24) Cc1ccc(NC(=O)OC(C)(C)C)c2c1N(C(=O)[C@H]1CCCO1)CCC2 = 22.6
25) COc1cc(Br)c(Nc2nc(-c3c(C)nc4ncccn34)cs2)c(Br)c1 = 31.1
26) COc1ccc(/C=C/C(=O)c2c(C)nc3ccccc3c2N)cc1 = 71.4
27) COC1(c2nc(Cc3ccccc3)no2)CCN(Cc2ncccc2Cl)CC1 = 107
28) Cc1ccc(OC[C@@H](O)[C@H](C)NC(C)C)c2c1CCC2 = 188
29) CCOC(=O)N1CCC(Nc2nc3ccccc3s2)CC1 = 17.6
30) Cc1ccc(NC(=O)c2cccc(N(C)C)c2)cc1NC(=O)c1ccc(O)cc1 = 18.4
31) Cc1ncsc1C(=O)N1CCCCC1c1nc(N)ncc1-c1cccc(C(F)(F)F)c1 (stereo not drawn) = 34.7
32) Cc1nc(-c2ccccc2)ccc1C(=O)N1CCCS1(=O)=O = 5.76
33) O=C(Nc1ccc(COC2CCCC2)cc1)N1CCC(CO)CC1 = 19.7
34) O=C(CNc1cc(N2CCCC2=O)ccc1F)N1CCCCCC1 = 23.6
35) Cc1ccc2c(c1)C(=O)CC1(CCN(C(=O)c3ccc4nc(C)cc(O)c4c3)CC1)O2 = 7.15
36) COc1ccc(-c2cccc(C3CCCN(C(=O)C4CCCC4)C3)n2)cc1 (stereo not drawn) = 119
37) O=C(CN1CCSC1=O)N1CCN(Cc2sc3ccccc3c2Cl)CC1 = 21
38) c1ccc2c(c1)CN(c1cnc3ccccc3n1)CCN2 = 37.7
39) CCc1ncnc(N(C)Cc2ccc(N)nc2)c1F = 2.65
40) CN1C(=O)N(CC(=O)Nc2ccccc2-c2ccccc2)C(=O)C1(C)C = 16.8
41) CC(C)Cn1cnc2c1c(=O)[nH]c(=O)n2CC(C)C = 4.44
